- assayed_target: angiotensin-converting enzymes (ACEs) from porcine kidneys (EC 3.4.15.1) (Sus scrofa, UniProt F1RRW5)
- Construct: angiotensin-converting enzymes (ACEs) from porcine kidneys (EC 3.4.15.1); purchased Sigma (Sigma Chemical Company, Saint Louis, MO, USA); host or cells: porcine kidney
- Sequence (F1RRW5 34-1309): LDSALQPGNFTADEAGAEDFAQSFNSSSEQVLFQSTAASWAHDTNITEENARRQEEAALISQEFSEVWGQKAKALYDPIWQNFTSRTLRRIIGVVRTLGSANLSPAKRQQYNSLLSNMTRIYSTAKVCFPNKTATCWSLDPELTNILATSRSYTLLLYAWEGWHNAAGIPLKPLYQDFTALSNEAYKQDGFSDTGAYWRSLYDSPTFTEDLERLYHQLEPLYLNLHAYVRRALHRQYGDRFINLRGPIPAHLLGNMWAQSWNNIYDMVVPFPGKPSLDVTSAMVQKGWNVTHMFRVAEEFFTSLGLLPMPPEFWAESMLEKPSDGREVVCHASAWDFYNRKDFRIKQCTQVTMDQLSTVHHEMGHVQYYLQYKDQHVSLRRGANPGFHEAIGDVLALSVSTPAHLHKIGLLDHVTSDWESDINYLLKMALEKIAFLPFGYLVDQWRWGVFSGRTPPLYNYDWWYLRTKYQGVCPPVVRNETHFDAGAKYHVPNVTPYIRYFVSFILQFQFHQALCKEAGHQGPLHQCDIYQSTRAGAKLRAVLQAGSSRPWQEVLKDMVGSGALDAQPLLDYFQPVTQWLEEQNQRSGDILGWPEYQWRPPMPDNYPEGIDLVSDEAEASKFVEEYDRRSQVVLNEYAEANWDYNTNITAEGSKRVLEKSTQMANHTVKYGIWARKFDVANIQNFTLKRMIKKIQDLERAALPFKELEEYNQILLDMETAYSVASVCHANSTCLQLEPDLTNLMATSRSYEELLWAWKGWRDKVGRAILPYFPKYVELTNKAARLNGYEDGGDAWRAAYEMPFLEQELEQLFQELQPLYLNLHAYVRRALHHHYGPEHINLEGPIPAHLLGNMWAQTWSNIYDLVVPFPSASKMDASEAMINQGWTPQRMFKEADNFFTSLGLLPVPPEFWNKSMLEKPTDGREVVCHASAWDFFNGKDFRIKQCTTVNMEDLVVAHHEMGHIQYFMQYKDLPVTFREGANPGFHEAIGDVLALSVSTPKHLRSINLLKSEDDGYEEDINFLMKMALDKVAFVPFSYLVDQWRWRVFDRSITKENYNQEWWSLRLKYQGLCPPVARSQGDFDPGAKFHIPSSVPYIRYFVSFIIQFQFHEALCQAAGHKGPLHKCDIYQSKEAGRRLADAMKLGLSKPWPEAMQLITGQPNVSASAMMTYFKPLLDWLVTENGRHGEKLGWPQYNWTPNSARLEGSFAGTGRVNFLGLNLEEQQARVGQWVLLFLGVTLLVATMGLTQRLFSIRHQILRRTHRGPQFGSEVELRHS
- method: biochemical
- test_settings: IC50 for ACE inhibition, concentration range 1.0-0.01 mM, linear regression, n = 6
pIC50: −log10 of the molar value.
measured_property: pIC50

> print(dat)
                                   compound  measured.property  endpoint.result
1  N[C@@H](CCC(=O)N[C@@H](CS)C(=O)NCC(=O)O)C(=O)O [GSH, reduced glutathione, reference compound]              pIC50             4.38

# credit: paper PMC12195695
